// provenance: ChEMBL document CHEMBL4177770

Assay: Drug level in Wistar Han rat at 100 mg/kg, po measured at 24 hrs by LC/MS method
Type: ADME, organism-based
Details: in vivo, read-out: Drug uptake
Reported endpoint: concentration at 24 h (nM)
Unit nM implied. Number only.

Take a look at these entries with their results.
COC(=O)N[C@H](C(=O)N1CCC[C@H]1c1ncc(-c2cc(F)c3c(c2)O[C@@H](c2ccc(C4CC4)s2)n2c-3cc3cc(-c4cnc([C@@H]5CCCN5C(=O)[C@@H](NC(=O)OC)C5CCOCC5)[nH]4)ccc32)[nH]1)C(C)C    11
COC(=O)N[C@H](C(=O)N1CCC[C@H]1c1ncc(-c2cc(F)c3c(c2)O[C@@H](c2ccc(C4CC4)s2)n2c-3cc3cc(-c4cnc([C@@H]5CCCN5C(=O)[C@@H](NC(=O)OC)C5C[C@@H](C)O[C@H](C)C5)[nH]4)ccc32)[nH]1)C(C)C (some centres undefined)    9
COC(=O)N[C@H](C(=O)N1CCC[C@H]1c1ncc(-c2cc(F)c3c(c2)O[C@@H](c2ccc(C4CC4)s2)n2c-3cc3cc(-c4cnc([C@@H]5CCCN5C(=O)[C@@H](NC(=O)OC)C5C[C@@H](C)O[C@@H](C)C5)[nH]4)ccc32)[nH]1)C(C)C (some centres undefined)    27

Could you please provide reported concentration at 24 h for `COC(=O)N[C@H](C(=O)N1CCC[C@H]1c1ncc(-c2cc(F)c3c(c2)O[C@@H](c2ccc(C4CC4)s2)n2c-3cc3cc(-c4cnc([C@@H]5CCCN5C(=O)[C@@H](NC(=O)OC)[C@@H]5CCOC(C)(C)C5)[nH]4)ccc32)[nH]1)C(C)C` ? Thanks!
72
